Test system: 327498-153-R-J2-PDC complex spheroid growth, % test/control;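 note: spheroids exposed to compound for 7 days after 3 days of growth; 100% = DMSO vehicle control wells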
Test: Anticancer human tumor 327498-153-R-J2-PDC patient-derived uterine carcinosarcoma cell line growth inhibition [Asc]
Conditions: second compound 0.01 µM; first compound 0.1 µM; stronger effect = lower value
Recorded viability, T/C, one value per entry.

>  <COMPOUND>
O=C(c1ccc(F)c(F)c1Nc1ccc(I)cc1F)N1CC(O)([C@@H]2CCCCN2)C1 + CNC(C)C(=O)NC1CN(S(=O)(=O)c2cccc(S(=O)(=O)N3CCC4CCC(C(=O)NC(c5ccccc5)c5ccccc5)N4C(=O)C(NC(=O)C(C)NC)C3)c2)CCC2CCC(C(=O)NC(c3ccccc3)c3ccccc3)N2C1=O

>  <viability, T/C (%)>
78.5

$$$$
>  <COMPOUND>
C=CC(=O)N1CCN(c2nc(=O)n(-c3c(C)ccnc3C(C)C)c3nc(-c4c(O)cccc4F)c(F)cc23)C(C)C1 (configuration not stated) + CNC(C)C(=O)NC1CN(S(=O)(=O)c2cccc(S(=O)(=O)N3CCC4CCC(C(=O)NC(c5ccccc5)c5ccccc5)N4C(=O)C(NC(=O)C(C)NC)C3)c2)CCC2CCC(C(=O)NC(c3ccccc3)c3ccccc3)N2C1=O

>  <viability, T/C (%)>
96

$$$$
